Kindly supply the reported inhibition at 10 µM values for the records listed here.
tested-on: human Edg-1(S1P1) (Homo sapiens)
Construct: expressed in transfected cells; host or cells: HEK-293
Sequence (P21453 whole entry): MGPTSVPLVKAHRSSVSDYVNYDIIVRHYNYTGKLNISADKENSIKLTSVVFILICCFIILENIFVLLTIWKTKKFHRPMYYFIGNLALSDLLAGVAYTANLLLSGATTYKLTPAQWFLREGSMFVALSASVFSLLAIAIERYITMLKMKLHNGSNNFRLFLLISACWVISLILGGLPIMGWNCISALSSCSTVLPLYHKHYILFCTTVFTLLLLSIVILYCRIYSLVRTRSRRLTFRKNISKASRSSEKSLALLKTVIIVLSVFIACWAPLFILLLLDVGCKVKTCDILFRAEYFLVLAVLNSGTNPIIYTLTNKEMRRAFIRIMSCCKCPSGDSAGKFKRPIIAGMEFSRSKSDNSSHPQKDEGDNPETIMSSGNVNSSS
procedure-details: Membrane system binding test: inhibition of [33P]-S1P binding to the membrane fraction of Edg-1(S1P1) gene transferred HEK-293 cells
applied-conditions: 10 μM compound; [33P]-S1P 0.1 nM; membrane fraction of Edg-1(S1P1) gene transferred HEK-293 cells; read-out: Membrane system binding test % inhibition (10 μM)
Numbers only, in %.

The reported value for CCn1c(OC)nnc1[C@@H](Cc1ccccc1)NS(=O)(=O)c1ccc(Cl)cc1 [Compound 390] in terms of inhibition at 10 µM is 99.8

inhibition at 10 µM recorded for this compound, CCn1c(OC)nnc1[C@@H](C)NS(=O)(=O)c1ccc(C)c(C)c1 [Compound 319] , is 89.9

For record CCn1c(OCc2ccccc2)nnc1[C@@H](C)NS(=O)(=O)c1ccc(Cl)cc1 [Compound 381] the listed inhibition at 10 µM is 94.9

With those in mind, consider the next compound.
The compound listed as CCCOc1nnc([C@H](C)NS(=O)(=O)c2ccc(Cl)cc2)n1CC [Compound 184] has a reported inhibition at 10 µM of 44.4
